Task for the reader: assign each of the following compounds its reported Percent Effect.
- subject.of.test: Shiga toxin 2 (Escherichia coli O157:H7) (UniProt P09385+P09386)
- protocol.notes: E. coli 0.157:H7 Shiga Toxin SOP - stx2 screening assay
- Format: functional
- Design: scale not given: direction of the effect not stated beside the values
- study.conditions: 30 µM
Expressed in %, but write only the number.

Field: Percent Effect (Shiga toxin 2 (Escherichia coli O157:H7) (UniProt P09385+P09386)). Entry: CS(=O)(=O)NCC1CCCN(C(=O)COc2ccc(F)cc2)C1 (configuration not stated)
-25.1

Field: Percent Effect (Shiga toxin 2 (Escherichia coli O157:H7) (UniProt P09385+P09386)). Entry: "COc1cc(C)nc(N2CCN(C(=O)COCC(F)(F)F)CC2)n1"
-20.7

Field: Percent Effect (Shiga toxin 2 (Escherichia coli O157:H7) (UniProt P09385+P09386)). Entry: Cc1n[nH]c(C2CN(C(=O)CCc3ccco3)CCO2)n1 (configuration not stated)
-9.36

Field: Percent Effect (Shiga toxin 2 (Escherichia coli O157:H7) (UniProt P09385+P09386)). Entry: "COCCN1CCC2(CCN(Cc3nccs3)CC2)C1=O"
-8.73

Field: Percent Effect (Shiga toxin 2 (Escherichia coli O157:H7) (UniProt P09385+P09386)). Entry: CCc1nc(CN(Cc2cccs2)CC2CCCO2)no1 (configuration not stated)
15

Field: Percent Effect (Shiga toxin 2 (Escherichia coli O157:H7) (UniProt P09385+P09386)). Entry: O=C(Cc1csc(-c2nnc[nH]2)n1)N1CCCC1Cn1cccn1 (configuration not stated)
5.43

Field: Percent Effect (Shiga toxin 2 (Escherichia coli O157:H7) (UniProt P09385+P09386)). Entry: CN(Cc1ccc(F)cc1)CC1(O)CCN(C(=O)c2cccn2C)C1 (configuration not stated)
-9.28

----------
- subject.of.test: Shiga toxin 2 (Escherichia coli O157:H7) (UniProt P09385+P09386)
- protocol.notes: E. coli 0.157:H7 Shiga Toxin SOP - stx2 screening assay
- Type: functional
- Parameters: scale not given: direction of the effect not stated beside the values
- study.conditions: 30 µM
Task for the reader: assign each of the following molecules its reported Percent Effect.
Expressed in %, but write only the number.

Which measured Percent Effect value corresponds to Cc1cnn(CC2CCCCN2C(=O)c2cc(Cl)c[nH]2)c1 (configuration not stated) ?
-31.9

Which measured Percent Effect value corresponds to COCC1CCN(c2cc(C3CN(C)CCO3)nc(C)n2)CC1 (configuration not stated) ?
-3.4

Which measured Percent Effect value corresponds to "Cn1cnc2c1CCN(Cc1cccc(C(N)=O)c1)C2" ?
-13.1

Which measured Percent Effect value corresponds to c1ccc(-n2ccc(CN3CCCC3Cn3cccn3)n2)cc1 (configuration not stated) ?
-19.3

Which measured Percent Effect value corresponds to "NC(=O)N1CCC2(CC1)CN(c1ccsc1)C(=O)CO2" ?
-21.1

Which measured Percent Effect value corresponds to "CC(C)N(C)Cc1cnc2n1CCN(CCc1ccccc1)C2" ?
-27.2

Which measured Percent Effect value corresponds to "Cc1ccc(C)c(C(=O)CN2C(=O)c3ccccc3CS2(=O)=O)c1" ?
-18.8

Which measured Percent Effect value corresponds to "O=C(NCc1ccccc1)[C@H]1C[C@@H]2CN(S(=O)(=O)C3CC3)C[C@H]1O2" ?
2.32

Which measured Percent Effect value corresponds to "Cc1ncsc1C(=O)N(C)CCc1ccncc1" ?
19.9

Which measured Percent Effect value corresponds to "CCCOCC(=O)NS(=O)(=O)c1ccc2c(c1)OCCCO2" ?
17.6

Which measured Percent Effect value corresponds to N#Cc1cn(C2CC2)c(=O)n(CC(O)c2ccccc2F)c1=O (configuration not stated) ?
14.2

Which measured Percent Effect value corresponds to Cc1nccn1-c1cc(CNC(=O)CCC2CCCO2)ccn1 (configuration not stated) ?
2.2
